Each record here notes measured inhibition at 100 µM.
- System: angiotensin II receptor subtype 1 (AT1) (Oryctolagus cuniculus)
- Construct: receptor : from adrenal glands in rabbits; from tissue; host or cells: rabbit adrenal glands
- Sequence (P34976 whole entry): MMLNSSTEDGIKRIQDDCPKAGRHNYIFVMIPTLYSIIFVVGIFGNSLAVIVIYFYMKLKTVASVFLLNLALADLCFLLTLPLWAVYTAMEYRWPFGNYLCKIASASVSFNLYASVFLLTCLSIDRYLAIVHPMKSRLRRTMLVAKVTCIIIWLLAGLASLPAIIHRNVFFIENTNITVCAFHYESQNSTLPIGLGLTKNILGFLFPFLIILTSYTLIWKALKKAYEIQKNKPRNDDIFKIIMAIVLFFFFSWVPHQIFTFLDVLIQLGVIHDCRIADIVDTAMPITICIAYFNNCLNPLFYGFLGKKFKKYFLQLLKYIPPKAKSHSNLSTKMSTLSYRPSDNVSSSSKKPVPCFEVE
- Method Notes: Binding to receptors: angiotensin II receptor subtype 1 (AT1)
- Design: species or system rabbits (adrenal glands)
- Condition Info: rabbit adrenal glands, tracer 3H-angiotensin II
Kindly answer with a numeric value in %, unit omitted.

Worked set:
- Molecule: "CCCCC(=O)N(Cc1ccc(C(=O)OCC(N)C(=O)OCC)cc1)c1cc(C(=O)N2CCOCC2)ccc1N(C)C (stereo not shown)"
  inhibition at 100 µM / %: 11
- Molecule: "CCCCC(=O)N(Cc1ccc(C(=O)OCCCN(C)C)cc1)c1cc(C(=O)N2CCOCC2)ccc1N(C)C"
  inhibition at 100 µM / %: 14
- Molecule: "CCCCC(=O)N(Cc1ccc(C(=O)OCCN(CC)CC)cc1)c1cc(C(=O)N2CCOCC2)ccc1C(C)C"
  inhibition at 100 µM / %: 11

// sample CCCCC(=O)N(Cc1ccc(C(=O)O)cc1)c1cc(C(=O)N2CCN(CCC)CC2)ccc1N(C)C , its inhibition at 100 µM was 0

// sample CCCCCCC(=O)N(Cc1ccc(C(=O)O)cc1)c1cc(C(=O)N2CCN(CCC)CC2)ccc1C(C)C , its inhibition at 100 µM was 0

// sample CCCCC(=O)N(Cc1ccc(C(=O)O)cc1)c1cc(C(=O)N2CCN(C)CC2)ccc1N(C)C , its inhibition at 100 µM was 13

// sample CCCCC(=O)N(Cc1ccc(C(=O)OCC)cc1)c1cc(C(=O)N2CCN(C)CC2)ccc1C(C)C , its inhibition at 100 µM was 0

Where these numbers come from: patent US5863913A
